B1: TRIM14 (parent)
chain: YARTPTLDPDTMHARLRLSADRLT

variants of: B1; assay: protein stability index of a GFP-peptide fusion (GPS, HEK-293T) (PSI 1-6); higher = more stable; details: c terminus: a fixed tail appended;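 note: lentivirally expressed fusions sorted by FACS into six bins by GFP to DsRed ratio, PSI derived from sequencing read proportions per bin multiplied by bin number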
Quick rule for you: protein stability index at 3 or higher means Y, lower means N.

Q: Please tell me: is the variant Y1C at or over 3 in terms of protein stability index?
Ans: Y

Q: Please tell me: is the variant T11K at or over 3 in terms of protein stability index?
Ans: Y

Q: Please tell me: is the variant L7Q at or over 3 in terms of protein stability index?
Ans: N

Q: Please tell me: is the variant D8H at or over 3 in terms of protein stability index?
Ans: N

Q: Please tell me: is the variant T11Q at or over 3 in terms of protein stability index?
Ans: N

Q: Please tell me: is the variant S19C at or over 3 in terms of protein stability index?
Ans: N

Q: Please tell me: is the variant M12A at or over 3 in terms of protein stability index?
Ans: N

Q: Please tell me: is the variant A20Y at or over 3 in terms of protein stability index?
Ans: N

Q: Please tell me: is the variant L18D at or over 3 in terms of protein stability index?
Ans: Y

Q: Please tell me: is the variant Y1K at or over 3 in terms of protein stability index?
Ans: Y

Q: Please tell me: is the variant A20V at or over 3 in terms of protein stability index?
Ans: N

Q: Please tell me: is the variant D8M at or over 3 in terms of protein stability index?
Ans: N

Q: Please tell me: is the variant T11E at or over 3 in terms of protein stability index?
Ans: Y

Q: Please tell me: is the variant D21K at or over 3 in terms of protein stability index?
Ans: N

Q: Please tell me: is the variant A14D at or over 3 in terms of protein stability index?
Ans: Y

Q: Please tell me: is the variant A2F at or over 3 in terms of protein stability index?
Ans: N

Q: Please tell me: is the variant T6Q at or over 3 in terms of protein stability index?
Ans: N

Q: Please tell me: is the variant R3D at or over 3 in terms of protein stability index?
Ans: Y

Q: Please tell me: is the variant R17D at or over 3 in terms of protein stability index?
Ans: Y

Q: Please tell me: is the variant Y1V at or over 3 in terms of protein stability index?
Ans: Y

Q: Please tell me: is the variant H13D at or over 3 in terms of protein stability index?
Ans: Y

All values here come from the supplement of paper PMC10567573.
